- experimental-details: pH of aqueous solutions or suspensions of additives, polymers and donepezil hydrochloride
- Assay type: physicochemical
- experimental-context: additive of the example alone, dissolved or suspended in purified water at 2.5%
metric-name: pH OF ADDITIVES (2.5% AQUEOUS SOLUTIONS OR SUSPENSIONS)

N[C@@H](CC(=O)O)C(=O)O [ASPARTIC ACID, aspartic acid] ... 3.0
O=C1O[C@H]([C@@H](O)CO)C(O)=C1O [ASCORBIC ACID, ascorbic acid] ... 2.6
O=C([O-])CN(CCN(CC(=O)[O-])CC(=O)O)CC(=O)O.[Na+].[Na+] [DISODIUM EDETATE, disodium edetate] ... 4.5
NCC(=O)O [GLYCINE, glycine] ... 6.2

Query: GET /values?readout=pH OF ADDITIVES (2.5% AQUEOUS SOLUTIONS OR SUSPENSIONS)&item= Cl.N[C@@H](CS)C(=O)O [CYSTEINE HYDROCHLORIDE, cysteine hydrochloride]
Reply: 1.5

Query: Which value of pH OF ADDITIVES (2.5% AQUEOUS SOLUTIONS OR SUSPENSIONS) has been reported for O=C([O-])CC(O)(CC(=O)[O-])C(=O)O.[Na+].[Na+] [DISODIUM CITRATE, disodium citrate] in the records?
Reply: 5.2

###

- experimental-details: pH of aqueous solutions or suspensions of additives, polymers and donepezil hydrochloride
- Format: physicochemical
- experimental-context: additive of the example alone, dissolved or suspended in purified water at 2.5%
Each entry below carries its recorded pH OF ADDITIVES (2.5% AQUEOUS SOLUTIONS OR SUSPENSIONS).
Just the number.

Use the examples below as a reference point.
O=C(O)CC(O)(CC(=O)O)C(=O)O ... 2.0
CSCC[C@H](N)C(=O)O ... 5.9

Query: Please look up its pH OF ADDITIVES (2.5% AQUEOUS SOLUTIONS OR SUSPENSIONS): N[C@@H](CC(=O)[O-])C(=O)[O-].[Na+].[Na+] [SODIUM ASPARTATE, sodium aspartate]
Reply: 6.8

###

- experimental-details: pH of aqueous solutions or suspensions of additives, polymers and donepezil hydrochloride
- Assay type: physicochemical
- experimental-context: additive of the example alone, dissolved or suspended in purified water at 2.5%
metric-name: pH OF ADDITIVES (2.5% AQUEOUS SOLUTIONS OR SUSPENSIONS)
# print the numeric value only

Examples from the recorded data:
O=C1O[C@H]([C@@H](O)CO)C([O-])=C1O.[Na+] [SODIUM ASCORBATE, sodium ascorbate] ... 7.5
N[C@@H](CS)C(=O)O ... 5.1

Query: Requested read-out: pH OF ADDITIVES (2.5% AQUEOUS SOLUTIONS OR SUSPENSIONS). Entry: O=C([O-])CC(O)(CC(=O)[O-])C(=O)[O-].[Na+].[Na+].[Na+] [SODIUM CITRATE, sodium citrate]
Reply: 8.3
